System: L. donovani HU3 strain in mouse peritoneal macrophages
Assay: Assay for proliferation of Leishmania parasites in infected mouse peritoneal macrophages (SybrGreen staining, high-content imaging, 5 days)
Assay type: cell-based, Leishmania donovani
Conditions: Leishmania donovani, Peritoneal macrophage, L. donovani in mouse peritoneal macrophages, inhibition of proliferation; read-out: L. donovani Macrophage EC50
Entries annotated with measured pEC50
On this scale, pEC50 is minus log10 of a concentration expressed in M (mol/L).

INSERT INTO assay_data (smiles_entry, value_type, result_number) VALUES
  ('Cc1nc(C)c(C(=O)Nc2ccc(F)c(-c3cn4cc(NC(=O)C5(C#N)CC5)cnc4n3)c2)o1', 'pEC50', 6.05),
  ('Cc1nc(C)c(C(=O)Nc2ccc(F)c(-c3nc4ncc(-c5ccccc5)cn4c3F)c2)o1', 'pEC50', 7.00),
  ('CN(CC(F)(F)F)C(=O)Nc1ccc(F)c(-c2cn3cc(-c4ccccc4)cnc3n2)c1', 'pEC50', 6.14),
  ('CNc1ccc(-c2cnc3nc(-c4cc(NC(=O)N5CCCC5)ccc4F)cn3c2)cc1', 'pEC50', 6.89),
  ('Cc1nc(C(=O)Nc2ccc(F)c(-c3cn4cc(NC(=O)OC(C)C)cnc4n3)c2)c(C)o1', 'pEC50', 4.94);

pEC50 for Cc1ccc(C(=O)Nc2ccc(Cl)c(-c3cn4cc(-c5ccccc5)cnc4n3)c2)o1 is 6.61
